Data origin: PubChem BioAssay AID489024

target: CHO-CHOP luciferase reporter, UPR activation, luminescence; test: CHOP reporter induction, apoptotic UPR branch – CHO-CHOP cells, luciferase luminescence, confirmation (AID 489024);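 note: compounds added alone to reporter cells with no tunicamycin stress co-treatment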
Activity calls are given as the source filed them.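 Rule for the calls: active = compounds whose mean EC50, the dose giving half the maximal reporter activation, is at or below a set limit; inactive = the rest.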
Your response should consist of one outcome taken from label 1 for active, label 0 for inactive

Use the examples below as a reference point.
[
  {
    "compound": "Cc1cc(N/N=C/c2ccccc2[N+](=O)[O-])nc(-n2nc(C)cc2C)n1",
    "label": "label 1"
  },
  {
    "compound": "Cc1nc([N+](=O)[O-])c(Br)n1CC(=O)c1ccc(Cl)cc1",
    "label": "label 0"
  }
]

Task: Lab log entry: O=C(Nc1ccc(NC(=O)c2sc3ccccc3c2Cl)cc1Cl)c1ccco1 — outcome as called in the assay?
Output: label 0

Task: For O=C(NCc1cccnc1)/C(=C/c1ccc(-c2cccc(Cl)c2)o1)S(=O)(=O)c1ccccc1 , what call appears in the results of this test?
Output: label 1

Task: Per the records of this test, what outcome belongs to NC(N)=N/N=C/c1ccc(N(c2ccccc2)c2ccccc2)cc1 ?
Output: label 0

* * *

target: CHO-CHOP luciferase reporter, UPR activation, luminescence; assay: CHOP reporter induction, apoptotic UPR branch – CHO-CHOP cells, luciferase luminescence, confirmation (AID 489024);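 note: compounds added alone to reporter cells with no tunicamycin stress co-treatment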
Activity calls are given as the source filed them.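 The calls were made as follows: active = compounds whose mean EC50, the dose giving half the maximal reporter activation, is at or below a set limit; inactive = the rest.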
Hi! Could you answer with just one of these? active, inactive

Observe how each entry below is paired with its result.
[
  {
    "compound": "O=C1NC(=O)N(Cc2ccccc2)C(=O)/C1=C\\C=C\\c1ccco1",
    "label": "inactive"
  },
  {
    "compound": "O=C(/C=C/c1ccc(O)c(O)c1)c1ccccc1O",
    "label": "active"
  },
  {
    "compound": "COc1ccc(C(=O)C(CN2CCCC2)c2ccccc2)cc1 (configuration not stated)",
    "label": "active"
  }
]

Pending compound:
Task: Hey, what did the test say about O=C(NCc1cccnc1)/C(=C\c1ccc(-c2ccc(Br)cc2)o1)S(=O)(=O)c1ccccc1 ?
Output: active

* * *

biological target: CHO-CHOP luciferase reporter, UPR activation, luminescence; assay: CHOP reporter induction, apoptotic UPR branch – CHO-CHOP cells, luciferase luminescence, confirmation (AID 489024);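 note: compounds added alone to reporter cells with no tunicamycin stress co-treatment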
Activity calls are given as the source filed them.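 Rule for the calls: active = compounds whose mean EC50, the dose giving half the maximal reporter activation, is at or below a set limit; inactive = the rest.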
value_kind: EC50

In the examples that follow, each entry is paired with its recorded EC50.
[
  {
    "compound": "CCOC(=O)c1ccc(N2C(=O)C=CC2=O)cc1",
    "reported": "> 80 µM (inactive)"
  },
  {
    "compound": "COCc1ccc(O)c2ncccc12",
    "reported": "15.1 µM"
  },
  {
    "compound": "COC(=O)c1cc(=O)n(Cc2ccco2)c(=Nc2ccc(F)c(Cl)c2)s1",
    "reported": "16.8 µM"
  },
  {
    "compound": "CCSC1(SCC)N=C(N)C2(C#N)C(c3ccc(F)cc3)C12C#N (stereo unspecified)",
    "reported": "11 µM"
  }
]

Task: Given CCOC(=O)c1ccc(-c2ccc(/C=N/NC(=O)CN(c3cccc(C)c3)S(C)(=O)=O)o2)cc1 , state its recorded EC50.
Output: 20 µM

Task: Which EC50 reading was recorded for the compound C/C(=N\NC(=O)c1ccc(F)cc1)c1ccccn1 ?
Output: 8.27 µM

Task: // returns reported EC50 for input COc1ccccc1N1CCN(/N=C/c2ccc(O)c(O)c2)CC1
Output: 2.36 µM

Task: Which EC50 value is on record for CC(C)C(=O)N1CCN(c2ccc(NC(=O)c3ccc([N+](=O)[O-])o3)cc2)CC1 ?
Output: 1.64 µM

Task: Fill blank: measured EC50 of the compound Cc1ccc(C(=O)Oc2ccc(Cl)c3cccnc23)cc1[N+](=O)[O-] is ____.
Output: inactive

Task: Recorded EC50 of CCNc1ccccc1CP(=O)(c1ccccc1)c1ccccc1O (stereo unspecified) , please.
Output: 15 µM

Task: Quick one: EC50 for COc1ccc(OC)c(/C=C/C(=O)N2C(=O)c3cccc(N)c3C2=O)c1 ?
Output: inactive
